biological target: human S1P1 receptor (Homo sapiens, UniProt P21453); construct: membranes were used; assay: GTP γ35S binding assay for S1P1 activity; details: membranes of cells stably expressing the S1P1 receptor, agonist potency
Sequence (P21453 whole entry): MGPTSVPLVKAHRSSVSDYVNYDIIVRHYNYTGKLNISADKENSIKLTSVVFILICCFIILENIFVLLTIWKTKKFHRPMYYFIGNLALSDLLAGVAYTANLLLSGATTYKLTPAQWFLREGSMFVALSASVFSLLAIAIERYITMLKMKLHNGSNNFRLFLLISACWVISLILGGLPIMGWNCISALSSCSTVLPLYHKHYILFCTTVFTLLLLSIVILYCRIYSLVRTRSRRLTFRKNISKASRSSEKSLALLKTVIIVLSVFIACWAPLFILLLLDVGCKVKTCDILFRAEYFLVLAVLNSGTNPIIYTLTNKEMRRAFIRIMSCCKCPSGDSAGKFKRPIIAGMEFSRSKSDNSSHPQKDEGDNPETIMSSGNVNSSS
ENDPOINT NAME: EC50

*Q* Indicate its recorded EC50; the molecule in question is Cc1ccc(CC(CCCCCCCN2CC(C(=O)O)C2)c2cccc(Cl)c2)cc1C (stereo not shown) [Compound 4]
*A* 644 nM

*Q* Indicate its recorded EC50; the molecule in question is Cc1ccc(CC(CCCCCCCN2CC(C(=O)O)C2)c2cc(F)cc(F)c2)cc1C (stereo not shown) [Compound 2]
*A* 61.4 nM

*Q* Indicate its recorded EC50; the molecule in question is Cc1ccc(CC(CCCCCCN2CC(C(=O)O)C2)c2cccc(Cl)c2)cc1C (stereo not shown) [Compound 3]
*A* 801 nM

*Q* Indicate its recorded EC50; the molecule in question is O=C(O)C1CN(CCCCCCCCC(Cc2ccccc2)c2cccc(Cl)c2)C1 (stereo not shown) [Compound 1]
*A* 129 nM
